// provenance: patent US10689383B2

target.entity: human RORγt (Ligand Binding Domain) (Homo sapiens, UniProt P51449)
Construct: purchased Crelux (Planegg, Germany) batch no PC5032-1
Sequence (P51449 269-508 limits assumed): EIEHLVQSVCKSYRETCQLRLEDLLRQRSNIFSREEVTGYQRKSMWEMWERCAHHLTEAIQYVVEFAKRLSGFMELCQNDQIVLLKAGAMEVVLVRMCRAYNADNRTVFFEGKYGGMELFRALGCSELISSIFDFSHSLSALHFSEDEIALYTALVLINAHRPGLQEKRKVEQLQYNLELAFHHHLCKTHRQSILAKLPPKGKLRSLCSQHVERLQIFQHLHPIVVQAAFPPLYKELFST
procedure.summary: Fluorescence Polarization (FP) Assay
reported.conditions: Fluorescence Polarization (FP) Assay; values given as upper bounds of activity ranges; read-out: FP activity range
pIC50: −log10 of the molar value.

| compound | pIC50 |
| --- | --- |
| O=S1(=O)CCC(O)(CNc2ncnc(N3CCC[C@@H]3c3ccc(C(F)(F)F)cc3)c2F)CC1 | > 6.30 |
| O=C(O)Cc1ccc(CNc2ncnc(N3CCOCC3c3ccc(OC(F)(F)F)cc3)c2F)cc1 (centres unmarked) | > 6.30 |
| COc1cc(CNc2ncnc(N3CCCC3c3ccc(C(F)(F)F)cc3)c2F)ccn1 (centres unmarked) | > 6.30 |
| N#CNC(=O)Cc1ccc(CNc2ncnc(N3CCOCC3c3ccc(C(F)(F)F)cc3)c2F)cc1 (centres unmarked) | > 6.30 |
| NC(=O)Cc1ccc(CNc2ncnc(N3CCOC[C@@H]3c3ccc(C(F)(F)F)cc3)c2F)cc1 | > 6.30 |
| Cc1ccc(CNc2ncnc(N3CCCC3c3ccc(OC(F)(F)F)cc3)c2F)cn1 (centres unmarked) | > 6.00 |
| Fc1c(NCC2CCOCC2)ncnc1N1CC(F)(F)CC1c1ccc(C(F)(F)F)cc1 (centres unmarked) | > 6.30 |
| NC(=O)Cc1ccc(CNc2ncnc(N3CCCCC3c3ccc(C(F)(F)F)cc3)c2F)cc1 (centres unmarked) | > 5.00 |
